# TEST_TARGET: BRD4-BD2 (Homo sapiens)
# Construct: purchased ReactionBiologyCorp; (RBC)
# TEST_PROTOCOL: BRD4 AlphaScreen determination (BD2)
# Assay type: binding
# SETTINGS: AlphaScreen, protein binding inhibition; read-out: BRD4-BD2 IC50
pIC50: −log10 of the molar value.
PARAMETER: pIC50

Record excerpt, results attached:
Cc1cc(F)cc(C)c1Oc1ccc(C(C)(C)O)cc1-c1cn(C)c(=O)c2cc(C(=O)NC(C)C)[nH]c12 = > 9.30
Cc1cc(F)cc(C)c1Oc1ccc(C(C)(C)O)cc1-c1cn(C)c(=O)c2cc(C(=O)NCC#N)[nH]c12 = > 9.30

Proceeding to the next compound to report its pIC50.
Query: Output pIC50 of `Cc1cc(F)cc(C)c1Oc1ccc(C(C)(C)O)cc1-c1cn(C)c(=O)c2cc(C(=O)NC(CF)CF)[nH]c12`
Reply: > 9.29
